The reported measurements were obtained from PubChem BioAssay AID1159580.

Test: chemical genetic growth profiling, strain panel (AID 1159580);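 also: tested at 20 µM; growth read once vehicle control cultures reached saturation at 30 °C; 1 = growth at the plate median or of vehicle wells; lower values mean less growth of the strain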
Conditions: S. cerevisiae deletion strains, growth OD, locus YKL085W, strain MDH1 (second series)
Among all 5,500 compounds or so, about 2,000 (36%) were called active. Inconclusive results (about 18%) are left out. Rule as the data show it: active = normalized growth mostly below about 0.91 (no sharp cut-off); inconclusive = no clear call, values can overlap the other calls; inactive = mostly above about 0.92. Some of the results follow.
Entry note: the call must match one of Y = active, N = inactive

* O=c1c(-c2ccccc2)coc2cc(O)cc(O)c12 | Y
* CN(C)CCC=C1c2ccccc2C=Cc2ccccc21 | N
* CC(=O)O[C@H]1C[C@@]2(C)[C@H](c3ccoc3)OC(=O)[C@H]3O[C@]32[C@@]2(C)C1[C@]1(C)C(C[C@H]2OC(C)=O)C(C)(C)[C@H](OC(C)=O)C[C@@H]1OC(C)=O (stereo partly drawn) | N
* CC(=O)OC1CC2C(C)(C)CCCC2(C)C2CCC3(C)C(c4ccoc4)OC(=O)C4OC43C12C (stereo not drawn) | N
* Nc1nc(N)c2nc(-c3ccccc3)c(N)nc2n1 | N

Exercise: What was the test verdict on `COc1c(O)cc2c(-c3ccccc3)cc(=O)oc2c1OC` ?
Key: N

Exercise: What was the test verdict on CC1(C)O[C@@H]2CC3C4CCC5=CC(=O)C=C[C@]5(C)[C@@]4(F)[C@@H](O)C[C@]3(C)[C@]2(C(=O)CO)O1 (stereo partly drawn) ?
Key: N

Exercise: What was the test verdict on `CCCCCCCCCc1ccc(O)cc1` ?
Key: Y

Exercise: What was the test verdict on `COc1ccc(-c2cc(=O)c3cc(OC)ccc3o2)cc1` ?
Key: N

Exercise: What was the test verdict on `COc1ccc(-c2cc(=O)c3ccccc3o2)cc1OC` ?
Key: N

Exercise: What was the test verdict on C=C1C2CC[C@@]3(C)[C@H](c4ccoc4)OC(=O)C[C@]13O[C@H]1CC(=O)C(C)(C)[C@H](C(O)C(=O)OC)[C@@]21C (stereo partly drawn) ?
Key: N

Exercise: What was the test verdict on `CC(=O)Oc1cc(OC(C)=O)c2c(=O)c(-c3ccccc3)coc2c1` ?
Key: N

Exercise: What was the test verdict on C#CCOS(=O)OC1CCCCC1Oc1ccc(C(C)(C)C)cc1 (stereo not drawn) ?
Key: N

Exercise: What was the test verdict on CC(=O)O[C@H]1C[C@@H](O)C(C)(C)C2C[C@@H](OC(C)=O)[C@]3(C)C(CC[C@@]4(C)[C@H](c5ccoc5)OC(=O)C5OC543)[C@]21C (stereo partly drawn) ?
Key: N

Exercise: What was the test verdict on `NCCc1ccc(O)cc1` ?
Key: N

---

Assign normalized growth to each entry below.
Experiment: chemical genetic growth profiling, strain panel (AID 1159580);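 also: tested at 20 µM; growth read once vehicle control cultures reached saturation at 30 °C; 1 = growth at the plate median or of vehicle wells; lower values mean less growth of the strain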
Details: S. cerevisiae deletion strains, growth OD, locus YNL233W, strain BNI4, active compounds read low
About 2,000 (36%) of roughly 5,500 compounds were called active. Roughly 18% stayed inconclusive and do not appear here. The list shows a part of the results.
Answers are plain numbers.

- CC(=O)O[C@@H]1CC2C(C)(C)CCC(=O)[C@]2(C)C2CC[C@@]3(C)[C@H](c4ccoc4)OC(=O)C4OC43[C@@]21C (stereo not given in full): 1
- NCC(=O)CCC(=O)O: 1.02
- CC(=O)O[C@@H]1CC2C(C)(C)[C@H](O)C[C@H](O)[C@]2(C)C2CC[C@@]3(C)[C@H](c4ccoc4)OC(=O)[C@H]4O[C@]43[C@@]21C (stereo not given in full): 1.02
- COC(=O)C1=C(C)NC(C)=C(C(=O)OCCN(C)Cc2ccccc2)C1c1cccc([N+](=O)[O-])c1 (stereo not given): 0.981
- CC(=O)O[C@@H]1CC2C(C)(C)C(=O)CC[C@]2(C)C2CC[C@@]3(C)[C@H](c4ccoc4)OC(=O)C4OC43[C@@]21C (stereo not given in full): 0.997
- CC(C)Oc1ccc2c(=O)cc(-c3ccccc3)oc2c1: 0.901

Hey, quick one: what's normalized growth for each of these?
1. C[N+]1(CCCCC[N+]2(C)CCCC2)CCCC1
2. C=CCc1ccccc1OCC(O)CNC(C)C (stereo not given)

Key:
1.01
0.982

Hey, quick one: what's normalized growth for each of these?
1. O=c1c(-c2cc(O)c(O)c(O)c2)coc2cc(O)c(O)c(O)c12
2. NCCc1cccc(O)c1

Key:
1: 0.876; 2: 0.989
